OUTCOME_MEASURE: melting point

// solved cases for melting point follow
CC(C)(C)CC(C)(C)c1ccc(N)c([N+](=O)[O-])c1; 104 to 107 °C
CCOC(=O)c1c(N)c2cccnc2n(CC)c1=O; 205 to 208 °C
COc1cc2c(cc1O)C(Cc1cc(Cl)ccc1[N+](=O)[O-])N(C)CC2 (stereo not given); 123 to 126 °C
O=c1[nH]c2cc(Cl)ccc2n1C1CCNCC1; 200 to 206 °C
O=C1CCN(C(=O)c2ccc(Cl)cc2Cl)c2cc(Cl)ccc21; 159 to 163 °C

melting point reading for CC1(C)Oc2ccc([N+](=O)[O-])cc2C(Br)C1Br (stereo not given) : 130 to 134 °C

melting point reading for O=C(/C=C/c1ccc(C(F)(F)F)cc1Br)Nc1ccc2[nH]ccc2c1 : 205 to 207 °C

melting point reading for O=c1nc(-c2cccc(OCc3ccccc3)n2)sc2ccccc12 : 241 °C

melting point reading for O=C(O)c1ccc(C(c2ccccc2)(C(F)(F)F)C(F)(F)F)cc1 : 153 to 155 °C

melting point reading for NC(=O)C=Cc1ccc(NC(=O)C=C2CC(C(=O)OCc3ccccc3)Nc3cc(Cl)cc(Cl)c32)cc1 (racemic) : > 250 °C

###

Measured melting point of individual entries

// solved cases for melting point follow
NC(Cc1nc2ccccc2nc1CP(=O)(O)O)C(=O)O (stereo not given); 174 °C
COc1ccc(Br)cc1-c1nc2ccc(OC(F)(F)F)cc2[nH]1; 175 to 178 °C
CC(C)(C)c1ccc(-c2nc(NC(=O)c3ccccc3)sc2-c2ccncc2)cc1; 292 to 294 °C

Pending compound:
melting point reading for CCn1c(C(O)(C(C)C)C(C)C)nc(-c2ccncc2)c1-c1ccc(Cl)cc1 : 221 to 223 °C

###

OUTCOME_MEASURE: melting point

melting point reading for Cc1ccnc(Sc2cnc(N)s2)n1 : 158 to 159 °C

###

OUTCOME_MEASURE: melting point

melting point reading for C[C@@H]1C(=O)C=CN2c3ccccc3CC[C@@H]12 (relative stereo) : 148 to 150 °C

###

Measured melting point of individual entries

// solved cases for melting point follow
COc1cc(OC)nc(OC(C(=O)O)C(OC)(c2ccccc2)c2ccccc2)n1 (stereo unspecified); 16 to 17 °C
CCOC1SCN(c2ccc(Cl)c(Cl)c2)C1=O (stereo unspecified); 61 to 65 °C

melting point reading for C[Si](C)(C)CCC1=C(O)C(=O)c2ccccc2C1=O : 98 to 100 °C

melting point reading for CC(=O)SC(CC(=O)c1ccc(C)cc1C)C(=O)O (stereo unspecified) : 101 to 102 °C

###

Measured melting point of individual entries

// solved cases for melting point follow
COc1ccc(OCc2ccccn2)c(/C=C/c2cc(/C=C/c3ccc4cc[nH]c4c3)n[nH]2)c1; 119 to 124 °C
CC1=CC(=O)C(C(C)C)=C(CCNC(=O)C(F)(F)F)C1=O; 94 to 95 °C
CN1CCC(O)(c2csc3ccccc23)CC1; 150 to 151 °C
FC(F)(F)c1cc(Oc2cc(Oc3ccc(Cl)c(C(F)(F)F)c3)ncn2)ccc1Cl; 111 °C

Pending compound:
melting point reading for O=C1Nc2ccc(Br)cc2/C1=C/c1ccc[nH]1 : 267 to 268 °C

###

OUTCOME_MEASURE: melting point (°C)

[I] Fc1cccc(COc2ccc(Nc3ncnc4sc(C#Cc5ncccn5)cc34)cc2Cl)c1
[II] COc1cccc(C#CC#Cc2cc(C(F)(F)F)ccc2C(F)(F)F)c1
Please compare: I and II . Report which one has the smaller melting point value. Returns: label corresponding to the selected item.
II

###

OUTCOME_MEASURE: melting point

COc1ccc(COCc2nc(C(C)C)c(Sc3cc(Cl)cc(Cl)c3)n2C(C)C)cc1; 136 to 137 °C
COC(=O)c1cc(Cl)cc(OC)c1O; 105 °C
Cn1ncc2c1-c1c(Oc3cc4c(cc3[N+](=O)[O-])OCO4)sc(C(N)=O)c1CC2; 230 to 231 °C
O=c1ccn(-c2cc3[nH]c(=O)c(=O)[nH]c3cc2[N+](=O)[O-])cc1F; > 300 °C
O=C1OCCN1c1ccc([N+](=O)[O-])cc1Cl; 94 to 96 °C

melting point reading for O=c1[nH]c2cc(Cl)ccc2c(O)c1Sc1ccc([N+](=O)[O-])cc1 : > 300 °C

melting point reading for CCOC(=O)C1NCCN(C(=O)OC(C)(C)C)C1=O (stereo not given) : 86 to 87 °C

melting point reading for Cc1nc(-c2ccc(N3CCOCC3)cc2)sc1-c1ccnc(Nc2ccc(N3CCOCC3)cc2)n1 : 273 to 274 °C

melting point reading for CN(C)C(=O)Nc1ccc(O)c([N+](=O)[O-])c1 : 142 °C

melting point reading for Nc1ccccc1Cc1n[nH]c(Cl)n1 : 162 to 165 °C

###

Measured melting point of individual entries

CC(C)(C)OC(=O)N1CCC(c2ccc3oc(-c4ccc(C(F)(F)F)cc4)nc3c2)CC1; 161 to 164 °C

melting point reading for COC(=O)C1=C(C)NC(C)=C([N+](=O)[O-])C1c1cccc2ncc(-c3ccccc3)cc12 (centres undefined) : 262 °C

melting point reading for CCCC1(OC(C)=O)CCC2C3CCC4CC(=O)CC(C)C4(C)C3CCC21C (centres undefined) : 128 to 129 °C

melting point reading for O=C(Nc1ccc(Oc2ccccc2)cc1)c1cc([N+](=O)[O-])ccc1Cl : 128 °C

melting point reading for CC1=C(C(=O)OC(C)C)C(c2cccc([N+](=O)[O-])c2)N(C(=O)N(C)C)C(=O)N1 (centres undefined) : 165 to 166 °C

melting point reading for COc1ccc(C2CCOCC2)cc1N : 102 to 103 °C

melting point reading for COc1cc2ncnc(N3CCN(C(=O)NCc4ccc(Br)cc4)CC3)c2cc1OC : 211 to 212 °C

melting point reading for CC1(C)OC(C=Cc2cc3ccccc3s2)=CC1=O : 104 °C

melting point reading for O=C1NCN(c2ccccc2)C12CCN(CCCC1(c3ccc(F)cc3F)OCCO1)CC2 : 58 to 62 °C

###

Measured melting point of individual entries

// solved cases for melting point follow
CC(O)C1C(=O)N2C(C(=O)OCc3ccc([N+](=O)[O-])cc3)C(=O)CC12 (mixture of isomers); 92 to 98 °C
N#Cc1ccc(NC2CCN(Cc3ccc(C(F)(F)F)cc3)CC2)nn1; 243 °C
CC(=O)c1c(C)nc(C)nc1NCc1ccc(Br)cc1; 78 to 80 °C
COc1ccc(N(CCCCO)S(=O)(=O)c2c(F)c(F)c(F)c(F)c2F)cc1; 88 to 90 °C

Pending molecule:
melting point reading for CN(C)S(=O)(=O)c1cc([N+](=O)[O-])ccc1C(=O)O : 160 to 163 °C

###

Measured melting point of individual entries

// solved cases for melting point follow
CCCCCCC/C=C/C(=O)NC1CCCCC1; 94 to 96 °C
CC(C)(C)n1ncc(OCc2ccc(OCc3ccc(F)cc3)nc2)c(Cl)c1=O; 121 to 124 °C
CC1(COCCCOc2ccc(C(=O)O)cc2)COC1; 102 °C
CSc1ccc2c(c1)N=CC(SC)C2=O (stereo unspecified); 90 to 92 °C
CC(C)(C)NS(=O)(=O)Cl; 28 to 30 °C

melting point reading for CCOC(=O)c1c(NC=CC(=O)C(C)C)sc(-c2ccc(OC)cc2)c1C : 121 to 122 °C

melting point reading for Cc1cccc(S(=O)(=O)NC(=O)NCCCCCCNC(=O)NS(=O)(=O)c2cccc(Cl)c2)c1 : 187 to 189 °C

melting point reading for Cc1ccc(C)c(C(C)Sc2cc(C)c3ccccc3n2)c1 (stereo unspecified) : 84 to 85 °C

melting point reading for COc1ccc(C2CCCN2S(=O)(=O)c2ccc(Cl)cc2)cc1 (racemic) : 133 °C

melting point reading for O=C1NC(=Cc2ccccc2F)C(=O)N1c1cc(F)ccc1F : 180 to 183 °C

melting point reading for CONC(=O)Nc1ccc(-c2sc3c(c2CN(C)Cc2ccccc2)c(=O)n(-c2ccccc2)c(=O)n3Cc2c(F)cccc2F)cc1 : 204 to 205 °C

melting point reading for Clc1ccc2nc(Cl)cnc2c1 : 152 °C

melting point reading for Cc1c(C=O)c2c(c(C)c1NC=O)C(c1ccc(C(C)C)cc1)CO2 (stereo unspecified) : 123 to 124 °C

melting point reading for Cc1nc(N2CCN(Cc3ccc(C(F)(F)F)cc3)C2=O)sc1-c1ccno1 : 153 to 154 °C

###

Measured melting point of individual entries

C=CCOc1ccc(OC2CCCCO2)c2c1CCC(=O)N2 (stereo not given); 113 to 115 °C
N#CC(C(=O)Nc1ccon1)C(=O)c1nn(-c2ccccc2)c2c1CSc1ccccc1-2 (stereo not given); 228 to 230 °C
Cc1ccc(C(=O)[C@@H]2[C@@H](C)CCCC2(C)C)cc1Cl; 59 to 60 °C

melting point reading for Cc1ccc2c(c1)NC(=O)c1ccccc1O2 : 231 to 232 °C

melting point reading for O=C(O)c1ccc(OC2CC2)cc1 : 153 to 155 °C

melting point reading for Cc1cc(-c2nc(CCl)co2)sc1Br : 71 to 72 °C

melting point reading for CCOc1ccc(-c2noc3c(Cl)c(O)ccc23)c(F)c1 : 170 to 172 °C

melting point reading for CCCN=C(N)Nc1ccnc(CCCCc2ncc(C)c(O)n2)n1 : 213 to 215 °C

melting point reading for Oc1cc2c3cc(O)c(O)cc3n(Cc3ccccc3)c2cc1O : 266 to 271 °C

melting point reading for Cc1cc2cc(CN3CCCCCC3)cnc2cc1NC(=O)c1ccc(-c2ccc(F)cc2)cc1 : 170 to 174 °C
